Tested on: IA-LM
Assay: relative viability (nuclei count vs DMSO), 5 days (fraction); higher = more cells survive
Conditions: first compound 0.01 µM
# 1.0 = relative viability below 0.8 (exclusive); 0.0 = relative viability at/above 0.8

Query: In the record for CCN(CC)CCCCNc1ncc2cc(-c3cc(OC)cc(OC)c3)c(NC(=O)NC(C)(C)C)nc2n1 + CC1(C)CCC(c2ccc(Cl)cc2)=C(CN2CCN(c3ccc(C(=O)NS(=O)(=O)c4ccc(N[C@H](CCN5CCOCC5)CSc5ccccc5)c(S(=O)(=O)C(F)(F)F)c4)cc3)CC2)C1 [Navitoclax] (partner 0.5 µM) , is relative viability less than 0.8?
Result: 1.0

Query: In the record for CCN(CC)CCCCNc1ncc2cc(-c3cc(OC)cc(OC)c3)c(NC(=O)NC(C)(C)C)nc2n1 + C[C@]1(O)C[C@@H](c2nc(-c3ccc4ccc(-c5ccccc5)nc4c3)c3c(N)nccn32)C1 [Linsitinib] (partner 1 µM) , is relative viability less than 0.8?
Result: 1.0

Query: In the record for O=c1cc(N2CCOCC2)oc2c(-c3cccc4c3sc3ccccc34)cccc12 + O=C(CCCCCCC(=O)Nc1ccccc1)NO [Vorinostat] (partner 1 µM) , is relative viability less than 0.8?
Result: 0.0

Query: In the record for CCN(CC)CCCCNc1ncc2cc(-c3cc(OC)cc(OC)c3)c(NC(=O)NC(C)(C)C)nc2n1 + COc1cc2c(Oc3ccc(NC(=O)C4(C(=O)Nc5ccc(F)cc5)CC4)cc3F)ccnc2cc1OCCCN1CCOCC1 [Foretinib] (partner 0.25 µM) , is relative viability less than 0.8?
Result: 0.0
